log10 of IC50 listing for selected compounds.
Tested on: A2780 DDP
Test: In vitro cytotoxicity, two cell line test procedure (A2780 DDP)
Format: cell-based
Conditions: Homo sapiens, 48 hours exposure, sulforhodamine B, cisplatin-resistant
Friendly reminder: values = log10 of IC50, unit µg/mL.

Please review the following examples before continuing.
CN(C)CCNC(=O)c1cccn2c(=O)c3cc(-c4cc5ccccc5c5ccccc45)ccc3nc12    0.72
CN(C)CCNC(=O)c1cccn2c(=O)c3cc(-c4cccc(N(C)C)c4)ccc3nc12    -0.30
CN(C)CCNC(=O)c1cccn2c(=O)c3cc(-c4cccc5ccccc45)ccc3nc12    0.67

Specify measured log10 of IC50 for CN(C)CCNC(=O)c1cccn2c(=O)c3cc(-c4cccc(C(F)(F)F)c4)ccc3nc12 .
0.62

Specify measured log10 of IC50 for CN(C)CCNC(=O)c1cccn2c(=O)c3cc(-c4cccc(N)c4)ccc3nc12 .
0.57
